tested.on: T1, HU-RAGE-SA (human, UniProt Q15109 23-342)
T1 construct: extracellular domain; Directly immobilized on a CM5 chip (~100 RU); also called hRAGE-SA; soluble human streptavidin-tagged RAGE; not shown: streptavidin tag (SA)
method: BIAcore kd against parental M4 scFv-Fc
Here, each record is paired with measured Fold change in kd data.
Return type: number; implicit unit fold.

binder: 5H3 scFv-Fc fusion (Fc fusion, not shown: wild-type human IgG Fc (hinge and constant domains)) DIQMTQSPSSLSASVGDRVTITCRASQDVGIYVNWFQQKPGKAPRRLIDRATNLADGVPSRFSGSRSGTDFTLTISSLQPEDFATYYCLEFDEHPLTFGGGTKVEIKDGGGSGGGGSGGGGSSEVLLVESGGGLVQPGGSLRLSCAASGFTFNNYWMTWVRQAPGKGLEWVASIDNSGDNTYYPDSVKDRFTISRDNAKNSLYLQMNSLRAEDTAVYYCARGGDITTGFDYWGQGTLVTVSS
Fold change in kd [fold]: 0.35

binder: 10H6 scFv-Fc fusion (Fc fusion, also called 10H6 (a); not shown: wild-type human IgG Fc (hinge and constant domains)) DIQMTQSPSSLSASVGDGVTITCQASQDVGIYVNWFQQKPGKAPRRLIYRATNLADGVPSRFSGSRSGTDFTLTISSLQPEDFATYYCLEFDEHPLTFGGGTKVEIKNGGGSGGGGSGGGGSSEVQLVESGGGLVQPGGSLRLSCAASGFTFNNYWMTWVRQAPGKGLEWVASIDNSGDNTYYPDSVKDRFTISRDNAKNSLYLQMNSLRAEDTAVYYCARGGDITTGLDYWGQGTLVTESS
Fold change in kd [fold]: 25.3

binder: 3B3 scFv-Fc fusion (Fc fusion, not shown: wild-type human IgG Fc (hinge and constant domains)) DIQMTQSPSSLSASVGDRVTITCRASQDVGFYVNWFQQKPGKAPRRLIYRATNLADGVPSRFSGSRSGTDFTLTISSLQPEDFATYYCLEFDEHPLTFGGGTKVEIKDGGGSGGGGSGGGGSSEVQLVESGGGLVQPGGSLRLSCAASGFTFNNYWMTWVRQAPGKGLEWVASIDNSGDNTYYPDSVKDRFTISRDNAKNSLYLQMNSLRAEDTAVYYCARGGDITTGLDYWGQGTLVTVSS
Fold change in kd [fold]: 4.5

binder: 5A3 scFv-Fc fusion (Fc fusion, not shown: wild-type human IgG Fc (hinge and constant domains)) DIQMTQSPSSLSASVGDIVTITCRASQDVGIYVNWFQQKPGKAPRRLIYRATNLADGVPSRFSGSRSSTDFTLTISSLQPEDFATYYCLEFDEHPLTFGGGTKVEIKDGGGSGGGGSGGGGSSEVQLVESGGGLVQPGGSLRLSCAASGFTFNNYWMTWVRQAPGKGLEWVASIDNSGDNTYYPDSVKDRFTISRDNAKNSLYLKMNSLRAEDTAVYYCTRGGDITTGLDYWGQGTLVTVSS
Fold change in kd [fold]: 5.9

Attention now shifts to the item below.
stdin: Quick one: Fold change in kd for 1G6 scFv-Fc fusion (Fc fusion, not shown: wild-type human IgG Fc (hinge and constant domains)) DIQMTQSPSSLSASVGDRVTITCRASQDVGFYVNWFQQKPGKAPRRLIYRATNLADGVPSRFSGSRSGTDFTLTISSLQPEDFATYYCLEFDEHPLTFGGGTKVEIKDGGGSGGGGSGGGGSSEVQLVESGGGLVQPGGSLRLSCAASGFTFNNYWMTWVRQAPGKGLEWVASIDNSGDNTYYPDSVKDRFTISRDNAKNSLYLQMNSLRAEDTAVYYCARGGDITNGFDYWGQGTLVTVSS ?
stdout: 66.9
